assay: molar heat capacity at constant pressure; conditions: 313.15 K; 101.33 kPa; Crystal; Small sample (50 mg) DSC
I'd be grateful if you could share measured molar heat capacity at constant pressure for these entries.
Expressed in J/K/mol, but write only the number.

Please look up its molar heat capacity at constant pressure: O=C[C@@H](O)[C@@H](O)[C@H](O)[C@H](O)CO
228.2

Please look up its molar heat capacity at constant pressure: OC[C@H]1O[C@@H](O[C@H]2[C@H](O)[C@@H](O)[C@H](O)O[C@@H]2CO)[C@H](O)[C@@H](O)[C@@H]1O
446.9

Please look up its molar heat capacity at constant pressure: OC[C@H]1O[C@H](O)[C@H](O)[C@@H](O)[C@@H]1O
232.6

Please look up its molar heat capacity at constant pressure: O=CC[C@H](O)[C@H](O)CO
178.4

Please look up its molar heat capacity at constant pressure: O.OC[C@H]1O[C@@H](O[C@H]2[C@H](O)[C@@H](O)[C@@H](O)O[C@@H]2CO)[C@H](O)[C@@H](O)[C@H]1O [α-D-lactose hydrate]
450

Please look up its molar heat capacity at constant pressure: OC[C@H]1OC(O)C[C@@H](O)[C@@H]1O (some centres not stated)
206.9

Please look up its molar heat capacity at constant pressure: O=C[C@H](O)[C@@H](O)[C@H](O[C@H]1O[C@H](CO)[C@@H](O[C@H]2O[C@H](CO)[C@@H](O)[C@H](O)[C@H]2O)[C@H](O)[C@H]1O)[C@H](O)CO
676.9

---

I'd be grateful if you could share measured molar heat capacity at constant pressure for these entries.
assay: molar heat capacity at constant pressure; conditions: 298.15 K; 101.33 kPa; Crystal; Small sample (50 mg) DSC
Expressed in J/K/mol, but write only the number.

Please look up its molar heat capacity at constant pressure: O=CC[C@H](O)[C@H](O)CO
162

Please look up its molar heat capacity at constant pressure: OC[C@H]1O[C@@H]2O[C@H]3[C@H](O)[C@@H](O)[C@@H](O[C@H]4[C@H](O)[C@@H](O)[C@@H](O[C@H]5[C@H](O)[C@@H](O)[C@@H](O[C@H]6[C@H](O)[C@@H](O)[C@@H](O[C@H]7[C@H](O)[C@@H](O)[C@@H](O[C@H]1[C@H](O)[C@H]2O)O[C@@H]7CO)O[C@@H]6CO)O[C@@H]5CO)O[C@@H]4CO)O[C@@H]3CO
1150

---

I'd be grateful if you could share measured molar heat capacity at constant pressure for these entries.
assay: molar heat capacity at constant pressure; settings: 308.15 K; 101.33 kPa; Crystal; Small sample (50 mg) DSC
± gives the expanded uncertainty stated by the source.

Please look up its molar heat capacity at constant pressure: OC[C@H]1O[C@@H](O[C@H]2[C@H](O)[C@@H](O)[C@H](O)O[C@@H]2CO)[C@H](O)[C@@H](O)[C@@H]1O
443.1 ± 7.8 J/K/mol

Please look up its molar heat capacity at constant pressure: OC[C@H]1O[C@@](CO)(O[C@H]2O[C@H](CO)[C@@H](O)[C@H](O)[C@H]2O)[C@@H](O)[C@@H]1O
437.5 ± 8.2 J/K/mol

Please look up its molar heat capacity at constant pressure: O=C[C@H](O)[C@@H](O)[C@@H](O)[C@H](O)CO [(+)-galactose]
222.3 ± 4.8 J/K/mol

Please look up its molar heat capacity at constant pressure: OC[C@H]1OC(O)C[C@@H](O)[C@@H]1O (some centres not stated)
204.5 ± 6 J/K/mol

Please look up its molar heat capacity at constant pressure: O=C[C@@H](O)[C@@H](O)[C@H](O)[C@H](O)CO
223.3 ± 6.8 J/K/mol

Please look up its molar heat capacity at constant pressure: O=C(CO)[C@@H](O)[C@H](O)[C@H](O)CO
236.9 ± 7.6 J/K/mol

Please look up its molar heat capacity at constant pressure: OC[C@H]1O[C@@H]2O[C@H]3[C@H](O)[C@@H](O)[C@@H](O[C@H]4[C@H](O)[C@@H](O)[C@@H](O[C@H]5[C@H](O)[C@@H](O)[C@@H](O[C@H]6[C@H](O)[C@@H](O)[C@@H](O[C@H]7[C@H](O)[C@@H](O)[C@@H](O[C@H]8[C@H](O)[C@@H](O)[C@@H](O[C@H]1[C@H](O)[C@H]2O)O[C@@H]8CO)O[C@@H]7CO)O[C@@H]6CO)O[C@@H]5CO)O[C@@H]4CO)O[C@@H]3CO
1401.3 ± 45 J/K/mol

Please look up its molar heat capacity at constant pressure: O=CC[C@H](O)[C@H](O)CO
171.7 ± 3.7 J/K/mol

Please look up its molar heat capacity at constant pressure: O=C[C@H](O)[C@H](O)[C@H](O)CO
193.9 ± 3.8 J/K/mol

Please look up its molar heat capacity at constant pressure: OC[C@H]1O[C@@H]2O[C@H]3[C@H](O)[C@@H](O)[C@@H](O[C@H]4[C@H](O)[C@@H](O)[C@@H](O[C@H]5[C@H](O)[C@@H](O)[C@@H](O[C@H]6[C@H](O)[C@@H](O)[C@@H](O[C@H]7[C@H](O)[C@@H](O)[C@@H](O[C@H]1[C@H](O)[C@H]2O)O[C@@H]7CO)O[C@@H]6CO)O[C@@H]5CO)O[C@@H]4CO)O[C@@H]3CO
1201.5 ± 52 J/K/mol

Please look up its molar heat capacity at constant pressure: OC[C@H]1O[C@H](O)[C@H](O)[C@@H](O)[C@@H]1O
226.5 ± 5.8 J/K/mol

Please look up its molar heat capacity at constant pressure: O=C[C@H](O)[C@@H](O)[C@H](O[C@H]1O[C@H](CO)[C@@H](O[C@H]2O[C@H](CO)[C@@H](O)[C@H](O)[C@H]2O)[C@H](O)[C@H]1O)[C@H](O)CO
666.3 ± 11 J/K/mol
